Data origin: paper PMC10397247

Recorded interaction score, one value per entry.
system-name: T1, 4H3782-bH
T1 chain: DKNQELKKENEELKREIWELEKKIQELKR
procedure-summary: two-hybrid library CCNG1;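 note: natural log of median RNA to DNA barcode read ratio; higher means stronger binding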

>  <binder>
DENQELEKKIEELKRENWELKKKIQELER [4H1373-bH]

>  <interaction score>
-0.345

$$$$
>  <binder>
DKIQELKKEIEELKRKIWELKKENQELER [4H2667-bH]

>  <interaction score>
-0.0673

$$$$
>  <binder>
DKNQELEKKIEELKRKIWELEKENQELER [4H3427-bH]

>  <interaction score>
-0.106

$$$$
>  <binder>
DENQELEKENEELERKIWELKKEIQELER [4H1193-bH]

>  <interaction score>
1.32

$$$$
